src = PubChem BioAssay (NCI)

experimental-protocol: NCI Yeast Anticancer Drug Screen. Data for the rad14 strain (AID 159);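 further: 0% = growth of vehicle-treated control cultures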
condition: S. cerevisiae rad14 strain growth inhibition; at 100.0 µM; stronger effect = higher value
The panel holds about 79,000 compounds, 15% with a hit somewhere; the sample as a whole holds those more often. The source made the active and inactive calls. No stated cut-off is given here; in the data, active means growth inhibition above about 70%; inactive means the rest.
quantity-kind: growth inhibition

>>> endpoint_result("CC(C)OC(=O)Nc1ccc2nc(-c3cscn3)[nH]c2c1")
"99% (active)"
>>> endpoint_result("O=c1[nH]c2ccc(Cl)cc2o1")
"-32% (inactive)"
>>> endpoint_result("COc1cc(C2SCC(=O)N2c2ccc(-c3ccc(-n4c(-c5ccccc5)nc5ccccc5c4=O)cc3)cc2)ccc1O (stereo not given)")
"25% (inactive)"
>>> endpoint_result("COc1ccc(N=CN(C)C)c(C)c1")
"95% (active)"
>>> endpoint_result("CC1SC2(C(=O)Nc3ccc(Cl)cc32)N(c2ccc(Cl)cc2)C1=O (stereo not given)")
"99% (active)"
